Taken from patent US9616107B2.

Test description: Toxicology study of VD in rats: 5-day continuous subcutaneous infusion by Alzet minipumps, plasma VD by radioimmunoassay, clinical observations
Type: in vivo
Applied conditions: Sprague Dawley, rat, in vivo, sc, 1.8 mg; male rats N=3, 1.80 mg, 4 hours post-dosing; read-out: Mean concentration of vessel dilator in plasma
Ends that are not written are not given here.
Parameter: level at 4 h (ng/mL)
Form entry: value (ng/mL) — number only.

Query: // level at 4 h lookup, key: EVVPPQVLSEPNEEAGAALSPLPEVPPWTGEVSPAQR [VD, Vessel Dilator]
Reply: 62.3

====

Test description: Toxicology study of VD in rats: 5-day continuous subcutaneous infusion by Alzet minipumps, plasma VD by radioimmunoassay, clinical observations
Format: in vivo
Applied conditions: Sprague Dawley, rat, in vivo, sc, 0.18 mg; male rats N=3, 0.180 mg, 24 hours post-dosing; read-out: Mean concentration of vessel dilator in plasma
Ends that are not written are not given here.
Parameter: level at 24 h (ng/mL)
# value in ng/mL; strip the unit string

Query: If you can, please state the reported level at 24 h value of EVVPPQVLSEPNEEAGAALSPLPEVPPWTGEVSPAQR [VD, Vessel Dilator] .
Reply: 13.3

====

Test description: Toxicology study of VD in rats: 5-day continuous subcutaneous infusion by Alzet minipumps, plasma VD by radioimmunoassay, clinical observations
Format: in vivo
Applied conditions: female, Sprague Dawley, rat, in vivo, sc, 0.18 mg
Ends that are not written are not given here.
Parameter: level at 24 h
State the result as a value with its unit after it.

Query: Query (sequence): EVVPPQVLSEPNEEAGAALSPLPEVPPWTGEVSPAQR [VD, Vessel Dilator] ; field requested: level at 24 h
Reply: 33.2 ng/mL

====

Test description: Toxicology study of VD in rats: 5-day continuous subcutaneous infusion by Alzet minipumps, plasma VD by radioimmunoassay, clinical observations
Type: in vivo
Applied conditions: female, Sprague Dawley, rat, in vivo, sc, 3.6 mg
Ends that are not written are not given here.
Parameter: level at 120 h
Put your answer as a value accompanied by its unit after it.

Query: Given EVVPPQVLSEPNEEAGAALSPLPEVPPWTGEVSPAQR [VD, Vessel Dilator] , state its recorded level at 120 h.
Reply: 567 ng/mL

====

Test description: Toxicology study of VD in canines: 5-day continuous subcutaneous infusion, plasma VD by radioimmunoassay, clinical observations
Type: in vivo
Applied conditions: male, beagle, dog, in vivo, sc, t1/2
Ends that are not written are not given here.
Parameter: half-life

Query: Which value of half-life has been reported for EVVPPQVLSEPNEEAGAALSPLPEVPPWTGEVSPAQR [VD, Vessel Dilator] in the records?
Reply: 44.1 min

====

Test description: Toxicology study of VD in canines: 5-day continuous subcutaneous infusion, plasma VD by radioimmunoassay, clinical observations
Type: in vivo
Applied conditions: beagle, dog, in vivo; female canine, 2.88 mg/kg/day (14.4 mg/kg), SC infusion 5 days; hours after start of infusion; read-out: Tmax
Ends that are not written are not given here.
Parameter: Tmax (h)
Return type: number; implicit unit h.

Query: Reported Tmax, sequence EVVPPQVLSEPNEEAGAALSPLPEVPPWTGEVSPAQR [VD, Vessel Dilator] : ____
Reply: 96

====

Test description: Toxicology study of VD in rats: 5-day continuous subcutaneous infusion by Alzet minipumps, plasma VD by radioimmunoassay, clinical observations
Assay type: in vivo
Applied conditions: Sprague Dawley, rat, in vivo, sc, 1.8 mg total dose; male rats N=3, 1.80 mg, 8 hours post-dosing; read-out: Mean concentration of vessel dilator in plasma
Ends that are not written are not given here.
Parameter: level at 8 h (ng/mL)
Please respond with the number in ng/mL and leave the unit unwritten.

Query: # lookup: level at 8 h of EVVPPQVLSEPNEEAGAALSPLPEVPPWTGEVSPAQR [VD, Vessel Dilator]
Reply: 204
